molecular target: EGFR L858R/T790M (Homo sapiens (Human), UniProt P00533, L858R/T790M); assay: HTRF-based EGFR biochemical assay (L858R/T790M); details: 100 μM ATP, enzyme 0.02 nM; dihydrochloride
Sequence (P00533 25-1210 T790M/L858R): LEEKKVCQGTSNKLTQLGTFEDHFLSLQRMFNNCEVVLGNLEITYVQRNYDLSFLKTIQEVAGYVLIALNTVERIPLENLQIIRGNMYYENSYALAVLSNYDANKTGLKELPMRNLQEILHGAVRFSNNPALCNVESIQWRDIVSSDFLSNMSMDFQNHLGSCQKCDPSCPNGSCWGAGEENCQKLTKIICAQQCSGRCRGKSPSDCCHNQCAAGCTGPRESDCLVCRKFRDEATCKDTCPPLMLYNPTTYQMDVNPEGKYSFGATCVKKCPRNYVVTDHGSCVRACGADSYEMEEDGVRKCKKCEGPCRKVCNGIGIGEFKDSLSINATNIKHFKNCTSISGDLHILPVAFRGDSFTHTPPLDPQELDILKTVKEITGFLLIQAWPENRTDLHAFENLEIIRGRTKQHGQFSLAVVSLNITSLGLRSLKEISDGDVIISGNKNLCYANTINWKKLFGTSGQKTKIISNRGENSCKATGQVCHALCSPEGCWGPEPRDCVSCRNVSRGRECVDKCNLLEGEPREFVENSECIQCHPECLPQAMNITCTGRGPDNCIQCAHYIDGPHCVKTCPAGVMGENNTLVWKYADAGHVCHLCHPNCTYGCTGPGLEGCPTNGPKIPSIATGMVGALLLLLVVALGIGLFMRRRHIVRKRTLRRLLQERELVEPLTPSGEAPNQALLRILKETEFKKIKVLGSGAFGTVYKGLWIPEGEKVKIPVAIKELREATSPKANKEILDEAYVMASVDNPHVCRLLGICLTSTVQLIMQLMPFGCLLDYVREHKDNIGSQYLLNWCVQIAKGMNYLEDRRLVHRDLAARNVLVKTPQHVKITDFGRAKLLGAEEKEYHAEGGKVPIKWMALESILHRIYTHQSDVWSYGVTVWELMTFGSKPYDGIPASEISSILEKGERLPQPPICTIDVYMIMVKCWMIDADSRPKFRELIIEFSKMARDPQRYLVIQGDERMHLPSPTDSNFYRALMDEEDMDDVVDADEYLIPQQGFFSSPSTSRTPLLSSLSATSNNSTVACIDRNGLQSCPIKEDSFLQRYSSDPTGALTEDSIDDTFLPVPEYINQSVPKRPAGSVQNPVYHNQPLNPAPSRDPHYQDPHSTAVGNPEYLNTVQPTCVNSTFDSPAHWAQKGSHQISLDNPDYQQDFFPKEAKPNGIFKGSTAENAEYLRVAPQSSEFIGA
Where a name gives a salt, the structure may show the parent alone.
assay-readout: IC50 (nM)

P: CN1CCC(c2ccc(-c3cc(F)c4c(=O)n([C@H](c5nc6ccccc6[nH]5)c5cc(F)ccc5O)ccc4c3)cc2)CC1 (single isomer, unassigned) [Compound 117, dihydrochloride]
Q: CN1CCC(c2ccc(-c3cc(F)c4c(=O)n([C@@H](c5nc6ccccc6[nH]5)c5cc(F)ccc5O)ccc4c3)cc2)CC1 (single isomer, unassigned) [Compound 116, dihydrochloride]
Query :: Higher IC50 between P and Q ? Select an item and report its label.
Result :: P
(P: 81 nM, Q: 0.2 nM)
